System: Rattus norvegicus
ASSAY TEXT: Reduction in blood pressure of rats, 2 hr after 0.03 mmol/kg p.o. administration
Type: functional
QUANTITY: Decrease in blood pressure (%)

• CCOC(=O)C1=C(C)N=C(CCn2ccnc2)/C(=C(/O)OCC)C1c1ccccc1[N+](=O)[O-].O=C(O)/C=C\C(=O)O (configuration not stated) = 44
• CCO/C(O)=C1\C(Cn2ccnc2)=NC(C)=C(C(=O)OC)C1c1cccc(C(F)(F)F)c1Cl (configuration not stated) = 60
• COC(=O)C1=C(C)N=C(Cn2ccnc2)/C(=C(/O)OC)C1c1cccc([N+](=O)[O-])c1.Cl (configuration not stated) = 42
• CCO/C(O)=C1\C(Cn2ccnc2)=NC(C)=C(C(=O)OC)C1c1ccccc1Cl (configuration not stated) = 31
• CCOC(=O)C1=C(C)NC(C)=C(C(=O)OC)C1c1cccc([N+](=O)[O-])c1 (configuration not stated) = 33
• CCO/C(O)=C1\C(Cn2ccnc2)=NC(C)=C(C(=O)OC)C1c1cccc(Cl)c1Cl (configuration not stated) = 54
• CCOC(=O)C1=C(C)N=C(Cn2ccnc2)/C(=C(/O)OCC)C1c1cccc([N+](=O)[O-])c1.Cl (configuration not stated) = 47

* * *

STUDY SYSTEM: Thromboxane-A synthase (Oryctolagus cuniculus)
ASSAY TEXT: Inhibition of Thromboxane A2 synthase in rabbit platelets in vitro
pIC50: −log10 of the molar value.
QUANTITY: pIC50

• CCO/C(O)=C1\C(C)=NC(Cn2ccnc2)=C(C(=O)OC)C1c1cccc([N+](=O)[O-])c1 (stereo not drawn) = 5.66
• Br.CCO/C(O)=C1\C(Cn2ccnc2)=NC(C)=C(C(=O)OC)C1c1c(F)cccc1Cl (stereo not drawn) = 4.71
• CCO/C(O)=C1\C(C)=NC(Cn2ccnc2)=C(C(=O)OC)C1c1cccc(C(F)(F)F)c1Cl (stereo not drawn) = 3.90
• CCO/C(O)=C1\C(Cn2ccnc2)=NC(Cn2ccnc2)=C(C(=O)OC)C1c1cccc([N+](=O)[O-])c1 (stereo not drawn) = 6.22
• CCO/C(O)=C1\C(C)=NC(Cn2ccnc2)=C(C(=O)OC)C1c1ccccc1OC(F)F (stereo not drawn) = 4.60
• CCOC(=O)C1=C(CCn2ccnc2)N=C(CCn2ccnc2)/C(=C(/O)OCC)C1c1cccc([N+](=O)[O-])c1 (stereo not drawn) = 5.28
• CCO/C(O)=C1\C(Cn2ccnc2)=NC(C)=C(C(=O)OC)C1c1ccccc1Cl (stereo not drawn) = 6.30
• CCOC(=O)C1=C(C)N=C(CCn2ccnc2)/C(=C(/O)OCC)C1c1ccccc1[N+](=O)[O-].O=C(O)/C=C\C(=O)O (stereo not drawn) = 5.64
